Data credit: patent US6800645B1

Reported values of melting point for individual entries

IN: State the recorded melting point for this entry: "COCc1nc2c(OC)ccc(C(=O)Cc3ccncc3)c2[nH]1"
OUT: 218 to 220 °C (dec.)

* * *

QUANTITY: melting point

Worked cases, melting point given:
>  <COMPOUND>
COc1ccc(Cn2cc(C)c3ccc(C(=O)c4ccccc4)cc32)cc1 [Example 24]

>  <melting point>
146 to 147 °C

$$$$
>  <COMPOUND>
Cc1ccc(S(=O)(=O)n2cc(C=O)c3ccc(C(=O)Nc4c(Cl)cncc4Cl)cc32)cc1 [Example 17]

>  <melting point>
245 °C

$$$$

# input for lookup
IN: Consider the compound COCc1nc2c(OC)ccc(C(O)(Cc3ccncc3)Cc3ccncc3)c2[nH]1 [Example 5] and give its measured melting point.
OUT: 210 °C (dec.)
